Where do these numbers come from? They come from patent US20050209278A1.

Target: MMP-14 (Homo sapiens)
Construct: The catalytic domain enzyme was expressed in E. coli inclusion bodies, solubilized in urea; made in house
Experiment: In vitro MMP inhibition, Ki determination (fluorogenic substrate II)
Assay type: biochemical
Conditions: value outside parentheses; read-out: MMP-14 Ki
quantity: pKi
Answer as the number alone; pKi is minus log10 of concentration in mol/L.

{"smiles": "O=C(NO)C1(S(=O)(=O)N2CCN(c3ncc(-c4ccc(Cl)cc4)s3)CC2)CCOCC1", "pKi": 7.46}

Consider now this further molecule.
Data request: GET /values?readout=pKi&item= CCCCOc1ccc(N2CCN(S(=O)(=O)C3(C(=O)NO)CCN(CCOC)CC3)CC2)nc1
Data returned: 6.04

###

Biological target: MMP-2 (Homo sapiens)
Construct: made in house; host or cells: MMP-2-transfected p2AHT2 cells
Sequence (P08253 110-660): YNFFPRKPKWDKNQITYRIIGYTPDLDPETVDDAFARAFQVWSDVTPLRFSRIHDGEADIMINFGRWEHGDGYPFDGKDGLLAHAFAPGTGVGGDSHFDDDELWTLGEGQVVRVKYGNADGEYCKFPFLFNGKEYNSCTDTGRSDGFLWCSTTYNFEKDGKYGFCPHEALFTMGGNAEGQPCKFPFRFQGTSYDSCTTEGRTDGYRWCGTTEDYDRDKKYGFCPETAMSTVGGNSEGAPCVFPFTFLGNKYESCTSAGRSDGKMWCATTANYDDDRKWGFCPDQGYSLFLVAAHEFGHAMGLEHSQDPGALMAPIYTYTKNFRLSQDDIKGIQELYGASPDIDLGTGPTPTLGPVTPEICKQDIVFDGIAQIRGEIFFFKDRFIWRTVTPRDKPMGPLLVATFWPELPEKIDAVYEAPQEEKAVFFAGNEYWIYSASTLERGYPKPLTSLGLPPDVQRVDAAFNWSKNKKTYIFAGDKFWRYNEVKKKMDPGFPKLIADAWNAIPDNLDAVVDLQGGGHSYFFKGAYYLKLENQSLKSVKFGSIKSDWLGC
Assay: In vitro MMP inhibition, Ki determination (fluorogenic substrate II)
Assay type: biochemical
Conditions: value outside parentheses; read-out: MMP-2 Ki
log10(Ki) overview
Recorded Ki (log10, nM)

{"smiles": "CCc1ccc(N2CCN(S(=O)(=O)C3(C(=O)NO)CCCCC3)CC2)nc1", "value reported": -0.73}
{"smiles": "CCCCOc1ccc(N2CCN(S(=O)(=O)C3(C(=O)NO)CCN(C(=O)N(C)C)CC3)CC2)cc1", "value reported": -0.51}
{"smiles": "O=C(NO)C1(S(=O)(=O)N2CCN(c3ncc(-c4ccc(O)cc4)s3)CC2)CCOCC1", "value reported": -0.65}
{"smiles": "CCCCOc1ccc(N2CCN(S(=O)(=O)C3(C(=O)NO)CCN(C4CC4)CC3)CC2)cc1", "value reported": -0.06}
{"smiles": "O=C(NO)C1(S(=O)(=O)N2CCC(c3ccc(CCCC(F)(F)F)cn3)CC2)CCOCC1", "value reported": 0.04}

Data request: Which log10(Ki) is reported for this compound? O=C(NO)C1(S(=O)(=O)N2CCN(c3cccc(OCCCC(F)(F)F)c3)CC2)CCOCC1
Data returned: 1.58

Data request: Could you share which log10(Ki) value was measured for CCCCCC/C=C\C1CCN(S(=O)(=O)C2(C(=O)NO)CCOCC2)CC1 ?
Data returned: 1.11

Data request: Form field: reported log10(Ki) of CCCCOc1ccc(N2CCN(S(=O)(=O)C3(C(=O)NO)CCN(c4ccc(O)nn4)CC3)CC2)cc1
Data returned: -0.43
